Reported values of viability, T/C for individual entries
test system: LG0567-F671-PDC complex spheroids viability; assay: Anticancer human tumor LG0567-F671-PDC patient-derived lung adenocarcinoma cell line growth inhibition [RAS]; settings: second compound 0.1 µM; first compound 10 µM; active compounds read low;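 note: spheroids exposed to compound for seven days before readout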
VALUE TYPE: viability, T/C (%)

COMPOUND	UNITS	TEST RESULT
Cc1nc(N2CCC3(CC2)COC(C)C3N)c(CO)nc1Sc1ccnc(N)c1Cl (stereo unspecified) + C#Cc1c(F)ccc2cc(O)cc(-c3ncc4c(N5CC6CCC(C5)N6)nc(OCC56CCCN5CC(F)C6)nc4c3F)c12	%	9.84
CC(=O)OC12COC1CC(O)C1(C)C(=O)C(O)C3=C(C)C(OC(=O)C(O)C(NC(=O)OC(C)(C)C)c4ccccc4)CC(O)(C(OC(=O)c4ccccc4)C21)C3(C)C (stereo unspecified) + C#Cc1c(F)ccc2cc(O)cc(-c3ncc4c(N5CC6CCC(C5)N6)nc(OCC56CCCN5CC(F)C6)nc4c3F)c12	%	59.4
CC(Nc1ccc2c(c1)OCCn1cc(N3C(=O)OCC3C(F)F)nc1-2)C(N)=O (stereo unspecified) + C=CC(=O)N1CCN(c2nc(OCC3CCCN3C)nc3c(F)c(-c4nc(N)cc(C)c4C(F)(F)F)c(Cl)cc23)C(C)C1	%	4.82
Cc1nc(N2CCC3(CC2)COC(C)C3N)c(CO)nc1Sc1ccnc(N)c1Cl (stereo unspecified) + C=CC(=O)N1CCN(c2nc(OCC3CCCN3C)nc3c(F)c(-c4nc(N)cc(C)c4C(F)(F)F)c(Cl)cc23)C(C)C1	%	2.91
CCC(CC)c1cc(NC2CCC(N)C2)n2nccc2n1 (stereo unspecified) + C#Cc1c(F)ccc2cc(O)cc(-c3ncc4c(N5CC6CCC(C5)N6)nc(OCC56CCCN5CC(F)C6)nc4c3F)c12	%	0.47
CC1(O)CCCC1n1c(=O)c(C(F)F)cc2cnc(NC3CCN(S(C)(=O)=O)CC3)nc21 (stereo unspecified) + C#Cc1c(F)ccc2cc(O)cc(-c3ncc4c(N5CC6CCC(C5)N6)nc(OCC56CCCN5CC(F)C6)nc4c3F)c12	%	33.1

This collection of values is drawn from PubChem BioAssay AID2060889.
